# Tested on: 855422-203-R-J1-PDC complex spheroid viability;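 further: spheroids exposed to compounds for seven days before readout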
# measurement-description: Anticancer human tumor 855422-203-R-J1-PDC patient-derived bladder carcinoma cell line growth inhibition [POLQ]
# condition-set: second compound 10 µM; first compound 0.0316 µM; stronger effect = lower value
Binary label based on viability, T/C with cut-off 20%: below gives t, not below gives f.

// below: answered compounds
compound	group-label
CC1COCCN1c1cc(C2(O)CC3CCC(C2)O3)c2cnn(-c3ccn[nH]3)c2n1 (stereo unspecified) + Nc1ccc(C#CCN(C(=O)Cc2ncc(C(F)(F)F)cc2C(F)(F)F)c2ccc(F)cc2)nn1	f
Cn1ncnc1[C@H]1c2n[nH]c(=O)c3cc(F)cc(c23)N[C@@H]1c1ccc(F)cc1 + Cc1cccc(N(C)C(=O)C2C(O)CCN2c2nc(C)cc(C(F)(F)F)c2C#N)c1	f
C=CC(=O)N1CCN(c2nc(=O)n(-c3c(C)ccnc3C(C)C)c3nc(-c4c(O)cccc4F)c(F)cc23)C(C)C1 (stereo unspecified) + Cc1cccc(N(C)C(=O)C2C(O)CCN2c2nc(C)cc(C(F)(F)F)c2C#N)c1	f

Prompt line: State whether 20% exceeds viability, T/C recorded for COc1cccc(OCCCN)c1-c1cc(Nc2cnc(C#N)cn2)n[nH]1 + Nc1ccc(C#CCN(C(=O)Cc2ncc(C(F)(F)F)cc2C(F)(F)F)c2ccc(F)cc2)nn1 .
Response line: f

Prompt line: Input O=c1[nH]cc(F)c(=O)[nH]1 + Nc1ccc(C#CCN(C(=O)Cc2ncc(C(F)(F)F)cc2C(F)(F)F)c2ccc(F)cc2)nn1 ; condition: viability, T/C strictly below 20%. Does it hold?
Response line: f

Prompt line: Could you please tell me whether viability, T/C recorded for COc1cccc2c1C(=O)c1c(O)c3c(c(O)c1C2=O)CC(O)(C(=O)CO)CC3OC1CC(N)C(O)C(C)O1 (stereo unspecified) + Cc1cccc(N(C)C(=O)C2C(O)CCN2c2nc(C)cc(C(F)(F)F)c2C#N)c1 is less than 20%?
Response line: t
